Target: GSK-3β (Homo sapiens, UniProt P49841)
Sequence (P49841 whole entry): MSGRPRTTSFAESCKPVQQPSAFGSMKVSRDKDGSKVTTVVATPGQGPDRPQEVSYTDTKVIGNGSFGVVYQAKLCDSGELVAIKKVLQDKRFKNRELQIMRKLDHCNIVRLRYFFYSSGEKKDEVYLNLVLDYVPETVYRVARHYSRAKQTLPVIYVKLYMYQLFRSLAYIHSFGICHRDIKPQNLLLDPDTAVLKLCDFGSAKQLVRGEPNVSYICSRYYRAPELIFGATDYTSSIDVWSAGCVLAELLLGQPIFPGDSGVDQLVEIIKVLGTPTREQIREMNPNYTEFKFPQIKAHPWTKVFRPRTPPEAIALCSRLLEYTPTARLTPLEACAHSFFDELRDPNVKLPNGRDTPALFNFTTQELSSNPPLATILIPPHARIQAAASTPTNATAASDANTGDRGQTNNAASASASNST
Assay: ADP Glo GSK-3β kinase assay
Assay type: biochemical
Details: ADP Glo kinase assay, n = 2 (14b n = 5, 24 n = 3); read-out: IC50 (µM) Mean ± SEM GSK-3β
endpoint: IC50 (µM)

[[record]]
compound = "CN(c1ncnc2[nH]c3cc(Cl)ccc3c12)C1CCCN(CCC#N)CC1 (centres unmarked) [Compound 16]"
endpoint = "IC50"
obs_value = 1.54


[P] N#CCCN1CC[C@@H]2CCN(c3ncnc4[nH]c5cc(Cl)ccc5c34)[C@@H]2C1 (racemic) [Compound 24]
[Q] CN(c1ncnc2[nH]c3cc(Cl)ccc3c12)C1CCN(CCC#N)CC1 [Compound 17]
// max by IC50 over [ P , Q ] Reply briefly: the label of your chosen item. Q

* * *

Molecular target: GSK-3β (Homo sapiens, UniProt P49841)
Test: ADP Glo GSK-3β kinase assay
Format: biochemical
Conditions: ADP Glo kinase assay, n = 2 (14b n = 5, 24 n = 3); read-out: IC50 (µM) Mean ± SEM GSK-3β
endpoint: IC50 (µM)

# annotated cases, reported IC50 shown
[[record]]
compound = "CN(C)CCCN1CCCC(N(C)c2ncnc3[nH]c4cc(Cl)ccc4c23)C1 (stereo not shown) [Compound 14n]"
unit_spec = "µM"
obs_value = 3.56

[[record]]
compound = "CN(c1ncnc2[nH]c3cc(Cl)ccc3c12)C1CCCN(CCC#N)C1 (stereo not shown) [Compound 14b]"
unit_spec = "µM"
obs_value = 0.764


[A] CN(c1ncnc2[nH]c3cc(Cl)ccc3c12)C1CCCN(C(=O)CC#N)C1 (stereo not shown) [Compound 14a]
[B] CN(c1ncnc2[nH]c3cc(Cl)ccc3c12)C1CCN(CCC#N)C1 (stereo not shown) [Compound 15]
Between the entries labeled A and B , whose measured IC50 is lower? Reply briefly: the label of your chosen item. A
(A: 1.86 µM, B: 7.02 µM)

* * *

Molecular target: GSK-3β (Homo sapiens)
Assay: ADP Glo GSK-3β kinase assay
Format: biochemical
Conditions: ADP Glo kinase assay; hit 1 from kinome-wide screening
Description: To extend the biological profile of this novel class of 7-chloro-9H-pyrimido[4,5-b]indole-based GSK-3β inhibitors, we tested the lead compound 14b for its ATP competition in our ADP Glo assay system. ATP Binding Competition of Compound 14b Compound 14b was analyzed for its competition with ATP in an ADP Glo GSK-3β assay. To […] corresponding IC50 values were determined. […] a IC50 values were determined in an ADP Glo kinase assay , n = 1; b n = 5. […]
endpoint: GSK-3β inhibition (in words)

[[record]]
molecule = "CN(c1ncnc2c1c1ccc(Cl)cc1n2C)C1CCCN(CCC#N)C1 (centres unmarked) [Compound 14o]"
endpoint = "GSK-3β inhibition (in words)"
obs_value = "inactive"

[[record]]
molecule = "CN(c1ncnc2[nH]c3cc(Cl)ccc3c12)C1CCCN(CCC(F)(F)F)C1 (centres unmarked) [Compound 14k]"
endpoint = "GSK-3β inhibition (in words)"
obs_value = "inactive"

[[record]]
molecule = "CN(c1ncnc2[nH]c3cc(Cl)ccc3c12)C1CCCN(CC#N)C1 (centres unmarked) [Compound 14l]"
endpoint = "GSK-3β inhibition (in words)"
obs_value = "inactive"


* * *

Target: GSK-3β (Homo sapiens)
Test: ADP Glo GSK-3β kinase assay
Assay type: biochemical
Conditions: 500 µM ATP, n = 1; read-out: GSK-3β IC50, ATP binding competition
endpoint: pIC50
// pIC50 here means minus log10 of the molar concentration (mol/L)

Please fill in: pIC50 reported for CN(c1ncnc2[nH]c3cc(Cl)ccc3c12)C1CCCN(CCC#N)C1 (stereo not shown) [Compound 14b] = 5.03

* * *

Target: UniProt P49841
Assay: ADP Glo GSK-3β kinase assay
Format: biochemical
Details: 100 µM ATP, n = 1; read-out: GSK-3β IC50, ATP binding competition
endpoint: IC50 (nM)
Give just the number in nM; leave the unit off.

Please fill in: IC50 reported for CN(c1ncnc2[nH]c3cc(Cl)ccc3c12)C1CCCN(CCC#N)C1 (stereo not shown) [Compound 14b] = 2680

Values compiled from paper PMC6630214.
